- tgt: T1, human GFRα3 expressed with a C-terminal mFc tag (human)
- T1 construct: also called hGFRα3-mFc
- T1 chain: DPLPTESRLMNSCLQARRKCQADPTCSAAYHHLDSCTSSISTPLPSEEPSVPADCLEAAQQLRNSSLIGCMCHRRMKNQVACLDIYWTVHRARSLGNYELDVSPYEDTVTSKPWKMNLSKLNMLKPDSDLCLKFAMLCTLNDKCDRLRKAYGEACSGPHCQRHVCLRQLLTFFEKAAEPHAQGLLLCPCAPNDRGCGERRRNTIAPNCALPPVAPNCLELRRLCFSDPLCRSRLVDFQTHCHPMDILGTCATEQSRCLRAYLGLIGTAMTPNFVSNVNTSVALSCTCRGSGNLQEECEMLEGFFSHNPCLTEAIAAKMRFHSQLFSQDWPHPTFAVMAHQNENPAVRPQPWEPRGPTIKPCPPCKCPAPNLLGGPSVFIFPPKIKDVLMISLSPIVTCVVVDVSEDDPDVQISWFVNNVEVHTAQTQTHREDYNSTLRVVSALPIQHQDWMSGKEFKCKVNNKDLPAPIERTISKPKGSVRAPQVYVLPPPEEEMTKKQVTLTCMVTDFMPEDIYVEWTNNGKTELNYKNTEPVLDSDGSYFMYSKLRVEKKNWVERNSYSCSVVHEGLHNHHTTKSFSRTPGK
- method summary: SPR, Ab captured, 37C
measured quantity: kon (M⁻¹ s⁻¹)
Number only, in M⁻¹ s⁻¹; omit the unit.

What value of measured kon is listed for H4H2294S (antibody, human IgG4, V domains shown, human IgG4 Fc (H4H)) VH: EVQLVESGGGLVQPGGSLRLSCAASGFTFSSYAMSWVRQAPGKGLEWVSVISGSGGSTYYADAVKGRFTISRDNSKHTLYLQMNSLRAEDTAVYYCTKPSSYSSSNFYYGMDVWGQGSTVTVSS VL: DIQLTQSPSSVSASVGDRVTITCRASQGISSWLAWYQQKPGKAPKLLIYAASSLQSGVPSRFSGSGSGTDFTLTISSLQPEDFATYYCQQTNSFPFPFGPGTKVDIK ?
1.66e+06

State the recorded kon for this entry: H4H2364S (antibody, human IgG4, V domains shown, human IgG4 Fc (H4H)) VH: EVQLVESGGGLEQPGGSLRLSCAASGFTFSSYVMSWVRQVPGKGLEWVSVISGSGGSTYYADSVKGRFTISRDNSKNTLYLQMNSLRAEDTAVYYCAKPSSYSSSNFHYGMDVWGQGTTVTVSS VL: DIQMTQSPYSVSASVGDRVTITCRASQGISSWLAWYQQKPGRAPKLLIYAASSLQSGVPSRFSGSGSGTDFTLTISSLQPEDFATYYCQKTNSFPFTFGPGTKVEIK
1.26e+06

Quick one: kon of H4H2350P (antibody, human IgG4, V domains shown, human IgG4 Fc (H4H)) VH: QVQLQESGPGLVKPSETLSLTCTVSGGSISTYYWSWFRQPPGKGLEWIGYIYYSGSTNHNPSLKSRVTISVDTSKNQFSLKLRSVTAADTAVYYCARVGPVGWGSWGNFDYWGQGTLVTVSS VL: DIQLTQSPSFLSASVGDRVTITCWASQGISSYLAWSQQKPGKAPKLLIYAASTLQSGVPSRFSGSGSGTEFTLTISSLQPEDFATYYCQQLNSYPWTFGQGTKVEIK ?
2.56e+06

From: patent US20140056903A1
